Each record here notes measured log10 of IC50.
- Assay Target: UniProt P31652
- Sequence (P31652 whole entry): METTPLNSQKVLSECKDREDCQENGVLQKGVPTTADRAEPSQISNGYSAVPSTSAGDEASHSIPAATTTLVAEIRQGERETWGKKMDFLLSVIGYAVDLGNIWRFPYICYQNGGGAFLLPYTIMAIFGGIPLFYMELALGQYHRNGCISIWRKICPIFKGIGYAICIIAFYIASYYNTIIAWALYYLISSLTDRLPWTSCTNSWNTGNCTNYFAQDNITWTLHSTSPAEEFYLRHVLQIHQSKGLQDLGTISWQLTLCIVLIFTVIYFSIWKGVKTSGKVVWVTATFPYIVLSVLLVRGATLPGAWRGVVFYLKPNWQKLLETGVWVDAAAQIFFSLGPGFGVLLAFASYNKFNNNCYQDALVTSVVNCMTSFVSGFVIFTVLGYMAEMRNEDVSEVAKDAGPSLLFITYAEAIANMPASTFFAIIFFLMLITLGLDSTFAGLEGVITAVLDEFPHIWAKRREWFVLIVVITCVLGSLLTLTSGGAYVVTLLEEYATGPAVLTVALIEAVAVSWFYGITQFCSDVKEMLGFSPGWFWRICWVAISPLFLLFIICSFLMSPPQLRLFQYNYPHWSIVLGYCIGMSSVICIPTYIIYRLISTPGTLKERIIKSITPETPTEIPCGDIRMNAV
- Experimental Protocol: Binding affinity at the serotonin transporter using [125I]RTI-55 in rat caudate membranes.
- Type: cell membranes
Record value = log10 of IC50 given in nM.

Record excerpt, results attached:
c1ccc(C(OCCN2CCN(Cc3cc4ccccc4s3)CC2)c2ccccc2)cc1    3.38
Fc1ccc(C(OCCN2CCN(Cc3nc4ccccc4[nH]3)CC2)c2ccc(F)cc2)cc1    2.41

Problem: Supply reported log10 of IC50 belonging to this molecule: C(=C\c1ccco1)/CN1CCN(CCOC(c2ccccc2)c2ccccc2)CC1
Solution: 3.26

Problem: Supply reported log10 of IC50 belonging to this molecule: c1ccc(C(OCCN2CCN(Cc3cnc4ccccc4c3)CC2)c2ccccc2)cc1
Solution: 3.06
